Entries and their FACS-Seq fitted mean (log10) values follow.
B1: library; a variant is named by its letters at N, in order (parent)
chain: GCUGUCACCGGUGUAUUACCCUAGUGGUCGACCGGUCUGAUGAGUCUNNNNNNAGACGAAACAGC

variants of: B1; experiment: FACS-Seq fitted mean relative fluorescence mCherry/BFP without ligand (log10 relative fluorescence); ligand: hypoxanthine (xanthine aptamer); higher = higher reporter protein expression; details: HEK293T, ligand present: no
Answer using only a numeral; do not append any unit.

Use the examples below as a reference point.
> print(dat)
    changes      val
 1   ACUGGA    0.309
 2   CUUCCC   -0.199
 3   AUAUUC    0.242
 4   AUCCAA    0.618
 5   GGUUUG   0.0895
 6   CUAGAA    0.259
 7   GACCCC   0.0047
 8   GCACUA    0.503
 9   UUAUGA  -0.0342
10   GACACC    0.458

The variant listed as CUAGCA has a reported FACS-Seq fitted mean (log10) of 0.139

Entry under test: GGACGG . Its FACS-Seq fitted mean (log10) was 0.346
